Property: blocking efficacy; scope: individual binders
- experimental_target: T1, Human Galectin-3 (Gal3) protein (human, UniProt P17931 1-250)
- T1 construct: also called hGal3; rhGal-3
- T1 sequence (P17931 whole entry): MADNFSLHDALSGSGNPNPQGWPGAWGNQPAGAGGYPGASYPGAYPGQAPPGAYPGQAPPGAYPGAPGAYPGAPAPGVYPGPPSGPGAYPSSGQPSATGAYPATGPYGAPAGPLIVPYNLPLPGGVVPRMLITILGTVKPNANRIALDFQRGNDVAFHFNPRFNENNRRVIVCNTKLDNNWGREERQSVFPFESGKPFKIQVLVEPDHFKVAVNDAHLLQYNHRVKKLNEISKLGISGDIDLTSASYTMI
- experimental_protocol: competition ELISA, hGal3 coated; competitor: biotinylated aggregated alpha-synuclein

binder	blocking efficacy
846T.16B5-hIgG4(S228P) (antibody, V domains shown, also called F846T.16B5; F846TC.16B5) VH: QIQLVQSGPELKKPGETVKISCKASGYTFTNYGMNWVKQAPGKGLKWMGWINTYTGEPAYADDFKGRFAFSLETSASTAYLQINNLKNEDMATYFCARWGGYDGDYYAMDYWGQGTSVTVSS VL: NIMMTQSPSSLAVSAGEKVTMSCKSSQSVLYSSNQKNYLAWYQQKPGQSPKLLIYWASTRESGVPDRFTGSGSGTDFTLTISSVQAEDLAVYYCHQYLSSLTFGAGTKLELK	> 70%
846.1F5-hIgG4(S228P) (antibody, V domains shown, also called F846C.1F5; QC200110) VH: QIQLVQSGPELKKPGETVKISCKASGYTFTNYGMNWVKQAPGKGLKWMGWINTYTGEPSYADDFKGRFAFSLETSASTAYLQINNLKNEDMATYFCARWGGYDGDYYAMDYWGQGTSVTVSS VL: NIMMTQSPSSLAVSAGEKVTMSCKSSQSVLYSSNQKNYLAWYQQKPGQSPKLLIYWASTRESGVPDRFTGSGSGTDFTLTISSVQPEDLAVYYCHQYLSSLTFGAGTKLELK	> 70%
846T.14A2-hIgG4(S338P) (antibody, V domains shown, also called F846TC.14A2; QC200122) VH: QIQLVQSGPELKKPGETVKISCKASGYTFTNYGMNWVKQAPGKGLKWMGWINTYTGEPTYAGDLKGRFAFSLETSASTAYLQINNLKNEDTATYFCVRYTMDYWGQGTSVTVSS VL: QAVVTQESALTTSPGETVTLTCRSSTGAVTTSNYANWVQEKPDHLFTGLIGGINNRVPGVPARFSGSLIGDKAALTITGAQTEDEAIYFCALWYSNHWVFGGGTKLTVL	> 70%
